Source listed as ChEMBL document CHEMBL6074698.

test name: in vitro
condition context: human, mv4-11
observable: half-life at 24 h
# answer = value followed by unit

What value of half-life at 24 h has been recorded for this entry: Nc1cccc2c1C(=O)N(C1CCC(=O)NC1=O)C2=O (stereo unspecified) [POMALIDOMIDE]
12 h

---

Consider the following compounds; for each one, report its half-life at 24 h.
test name: in vitro
condition context: human, MV4-11 cells
Report the figure in h without appending any unit label.

What value of half-life at 24 h has been recorded for this entry: O=C1CCC(N2C(=O)c3ccccc3C2=O)C(=O)N1 (stereo not drawn) [THALIDOMIDE]
3.3

Also check Nc1cccc2c1CN(C1CCC(=O)NC1=O)C2=O (stereo not drawn) [LENALIDOMIDE]
12

---

test name: physchem
condition context: PBS, pH 7.4
observable: logD
I'd appreciate a reply containing only the number, no unit.

What value of logD has been recorded for this entry: O=C1CCC(c2cccc3cc[nH]c23)C(=O)N1 (configuration not stated)
1.4

Also check O=C1CCC(N2C(=O)c3ccccc3C2=O)C(=O)N1 (configuration not stated) [THALIDOMIDE]
0.7

Also check O=C1CCC(c2ccccc2)C(=O)N1 (configuration not stated)
0.6

Also check O=C1CCC(c2ccnc3[nH]ncc23)C(=O)N1 (configuration not stated)
-0.3

Also check Nc1cccc2c1C(=O)N(C1CCC(=O)NC1=O)C2=O (configuration not stated) [POMALIDOMIDE]
1.3

Also check O=C1CCC(c2ccc3[nH]ncc3c2)C(=O)N1 (configuration not stated)
0.3

Also check `O=C1CCN(c2ccccc2)C(=O)N1`
0.3

---

test name: physchem
condition context: DMEM buffer, pH 7.4
observable: half-life at 48 h (min)
Report the figure in min without appending any unit label.

What value of half-life at 48 h has been recorded for this entry: Nc1cccc2c1CN(C1CCC(=O)NC1=O)C2=O (configuration not stated) [LENALIDOMIDE]
54

Also check Nc1cccc2c1C(=O)N(C1CCC(=O)NC1=O)C2=O (configuration not stated) [POMALIDOMIDE]
24
